Each entry below carries its recorded pKi.
- assayed system: Cannabinoid receptor 1 (Homo sapiens)
- Sequence (P21554 whole entry): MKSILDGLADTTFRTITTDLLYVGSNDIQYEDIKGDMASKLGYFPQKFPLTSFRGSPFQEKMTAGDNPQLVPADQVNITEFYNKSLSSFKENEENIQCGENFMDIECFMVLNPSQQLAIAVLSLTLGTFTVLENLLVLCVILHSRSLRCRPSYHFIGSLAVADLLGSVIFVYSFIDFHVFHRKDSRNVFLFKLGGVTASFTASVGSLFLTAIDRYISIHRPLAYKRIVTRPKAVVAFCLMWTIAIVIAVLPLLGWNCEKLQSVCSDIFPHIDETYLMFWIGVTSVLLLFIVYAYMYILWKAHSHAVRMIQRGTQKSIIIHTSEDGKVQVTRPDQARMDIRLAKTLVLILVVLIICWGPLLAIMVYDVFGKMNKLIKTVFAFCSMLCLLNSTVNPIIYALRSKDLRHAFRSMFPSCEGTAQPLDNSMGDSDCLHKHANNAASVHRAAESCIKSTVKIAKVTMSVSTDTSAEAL
- experiment notes: Displacement of [3H]CP55940 from full length human recombinant CB1 receptor expressed in HEK293 cells after 90 mins by scintillation counting analysis
pKi: −log10 of the molar value.
result type: pKi

{"smiles": "CCCCCc1cc(O)c2c(c1)OC(C)(C)[C@@H]1C[C@H](O)C(C)=C[C@@H]21", "measured result": 5.72}
{"smiles": "CCCCCc1cc(O)c2c(c1)OC(C)(C)[C@@H]1C[C@@H](O)C(C)=C[C@@H]21", "measured result": 7.19}
{"smiles": "CCCCCc1cc2c(c(O)c1C(=O)O)[C@@H]1C=C(COC(C)=O)CC[C@H]1C(C)(C)O2", "measured result": 7.33}
{"smiles": "CCCCCc1cc(O)c2c(c1)OC(C)(C)[C@@H]1CC=C(C)[C@@H](O)[C@@H]21", "measured result": 6.08}
{"smiles": "CCCCCc1cc(O)c2c(c1)OC(C)(C)[C@@H]1CC[C@](C)(O)[C@@H](O)[C@@H]21", "measured result": 5.25}
{"smiles": "CCCCCc1cc(O)c2c(c1)OC(C)(C)[C@@H]1CC[C@@]3(C)O[C@H]3[C@@H]21", "measured result": 6.65}
{"smiles": "C=C1CC[C@@H]2[C@H](c3c(O)cc(CCCCC)cc3OC2(C)C)[C@H]1O", "measured result": 6.93}
{"smiles": "CCCCCc1cc(O)c2c(c1)OC(C)(C)[C@@H]1CC=C(C)[C@H](O)[C@@H]21", "measured result": 7.51}

* * *

- assayed system: Cannabinoid receptor 2 (Homo sapiens)
- Sequence (P34972 whole entry): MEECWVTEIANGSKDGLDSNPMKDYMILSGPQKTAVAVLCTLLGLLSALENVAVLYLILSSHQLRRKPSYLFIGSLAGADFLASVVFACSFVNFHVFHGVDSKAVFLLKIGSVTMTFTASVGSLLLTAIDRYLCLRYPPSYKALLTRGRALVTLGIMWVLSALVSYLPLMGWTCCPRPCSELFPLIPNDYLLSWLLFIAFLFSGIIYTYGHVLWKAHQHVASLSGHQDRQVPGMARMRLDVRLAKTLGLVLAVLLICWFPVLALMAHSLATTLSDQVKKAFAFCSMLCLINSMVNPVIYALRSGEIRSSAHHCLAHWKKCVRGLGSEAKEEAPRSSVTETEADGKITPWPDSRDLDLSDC
- experiment notes: Displacement of [3H]CP55940 from full length human recombinant CB2 receptor expressed in HEK293 cells after 90 mins by scintillation counting analysis
Listed below: log10 Ki values for each entry.
result type: log10 Ki (log10 of the value in nM)

{"smiles": "C=C1CC[C@@H]2[C@H](c3c(O)cc(CCCCC)cc3OC2(C)C)[C@H]1O", "measured result": 2.11}
{"smiles": "CCCCCc1cc(O)c2c(c1)OC(C)(C)[C@@H]1CC=C(C)[C@H](O)[C@@H]21", "measured result": 1.48}
{"smiles": "CCCCCc1cc(O)c2c(c1)OC(C)(C)[C@@H]1C[C@@H](O)C(C)=C[C@@H]21", "measured result": 1.94}
{"smiles": "CCCCCc1cc(O)c2c(c1)OC(C)(C)[C@@H]1CC[C@@]3(C)O[C@H]3[C@@H]21", "measured result": 2.53}
{"smiles": "CCCCCc1cc(O)c2c(c1)OC(C)(C)[C@@H]1CC=C(C)[C@@H](O)[C@@H]21", "measured result": 3.51}
{"smiles": "CCCCCc1cc(O)c2c(c1)OC(C)(C)[C@@H]1C[C@H](O)C(C)=C[C@@H]21", "measured result": 3.51}
{"smiles": "CCCCCc1cc(O)c2c(c1)OC(C)(C)[C@@H]1CC[C@](C)(O)[C@@H](O)[C@@H]21", "measured result": 3.33}
{"smiles": "CCCCCc1cc2c(c(O)c1C(=O)O)[C@@H]1C=C(COC(C)=O)CC[C@H]1C(C)(C)O2", "measured result": 2.96}
